Where these numbers come from: PubChem BioAssay (NCATS)

# Test Protocol: P-glycoprotein substrates identified in KB-8-5-11 adenocarcinoma cell line, qHTS therapeutic library screen (AID 1346987); note: nearly all actives have a fitted effect of over 65% in size
# Experimental Parameters: KB-8-5-11 (P-gp overexpressing) viability, CellTiter-Glo, 72 h; series mostly up to 44.5 µM
Results filed as inconclusive are left out. The source made the active and inactive calls. Calls come from the whole dose curve; as a rule, active = well fitted inhibition curve with a large enough effect; inconclusive = small, poorly fitted or top-dose-only effect; inactive = flat fitted curve, though single readings scatter.
In this exercise, the only acceptable responses are active, inactive

## Task Hi, do you know how `C[C@@H](NC(=O)C(=O)c1c[nH]c2ccc([N+](=O)[O-])cc12)c1ccccc1` came out in this test?
## Result inactive

## Task Request: `CCCC(=O)O[C@]1(C(=O)COC(=O)CC)[C@@H](C)C[C@H]2[C@@H]3CCC4=CC(=O)C=C[C@]4(C)[C@@]3(F)[C@@H](O)C[C@@]21C`
## Result inactive

## Task Request: C=C(CCC1C(C)(O)CCC2C(C)(C)C(O)CCC12C)C(O)CO (stereo not given)
## Result inactive

## Task Request: `CC(C)(C)[C@H](NC(=O)c1ccc(N)c(Cl)c1)C(=O)N1CCC[C@H]1C(=O)N[C@H](C#N)CC(=O)O`
## Result inactive

## Task Request: Cc1c(N)nc(C(CC(N)=O)NCC(N)C(N)=O)nc1C(=O)NC(C(=O)NC(C)C(O)C(C)C(=O)NC(C(=O)NCCc1nc(-c2nc(C(=O)NCCCN[C@@H](C)c3ccccc3)cs2)cs1)C(C)O)C(O[C@@H]1O[C@@H](CO)[C@@H](O)[C@H](O)[C@@H]1O[C@H]1O[C@H](CO)[C@@H](O)[C@H](OC(N)=O)[C@@H]1O)c1cnc[nH]1 (stereo not given in full)
## Result inactive

## Task Request: `Nc1ncnc(Nc2ccc(Cl)cc2)n1`
## Result inactive

## Task Request: `CN(C)C(=O)NC1(c2ccccc2)CCN(CCC[C@]2(c3ccc(Cl)c(Cl)c3)CCCN(C(=O)c3ccccc3)C2)CC1`
## Result active

## Task Request: `CCCCCc1ccc(/C=C/C(=O)Nc2cc(Cl)ccc2C(=O)O)cc1`
## Result inactive

## Task Request: `CCc1c[nH]c2ncnc(N3CC[C@](N)(CNC(=O)c4ccc(F)cc4F)C3)c12`
## Result inactive

## Task Request: COc1ccccc1OCCNCC(O)CCOc1cccc2[nH]c3ccccc3c12 (stereo not given)
## Result active

====

# Tested on: Es-2
# Test Protocol: Primary qHTS to identify gynecologic anti-cancer compounds using libraries of approved drugs and bioactive compounds (AID 1345084); note: nearly all actives have a fitted effect of over 55% in size
# Experimental Parameters: Gynecologic cancer cell panel viability, ATPlite luminescence, 48 h; series mostly up to 57.5 µM
Inconclusive results are not listed. Active and inactive are the calls of the source. The call rests on the fitted dose curve; in most records, active means well fitted cell-killing curve with a large enough effect; inconclusive means small, poorly fitted or top-dose-only effect, or effect the other way; inactive means flat fitted curve, though single readings scatter.
In this exercise, the only acceptable responses are active, inactive

## Task Hi, do you know how `CC[C@H]1OC(=O)[C@H](C)[C@@H](O[C@H]2C[C@@](C)(OC)[C@@H](O)[C@H](C)O2)[C@H](C)[C@@H](O[C@H]2O[C@H](C)C[C@H](N(C)C)[C@H]2O)[C@](C)(O)C[C@@H](C)C(=O)[C@H](C)[C@@H](O)[C@]1(C)O` came out in this test?
## Result inactive

## Task Request: CC1OC(=O)C[C@@H]2C(C(=O)O)=CO[C@@H](O[C@H]3O[C@H](CO)[C@@H](O)[C@H](O)[C@H]3O)[C@H]12 (some centres not stated)
## Result inactive

## Task Request: C[C@@H]1C[C@H]2O[C@@]3(O[C@@H]2C(C)(C)O)C(O)[C@@]2(C)C4CCC5C(C)(C)[C@@H](O[C@H]6OC[C@H](O)[C@@H](O)[C@@H]6O)CC[C@@]56C[C@@]46CC[C@]2(C)C13 (some centres not stated)
## Result inactive

## Task Request: `CC(/C=C/C(=O)NO)=C\[C@@H](C)C(=O)c1ccc(N(C)C)cc1`
## Result active

## Task Request: `O=C(CCl)Nc1cccc(NC2=NS(=O)(=O)c3ccccc32)c1`
## Result inactive

## Task Request: `Cc1ccc(-c2ncc[nH]2)cc1NC(=O)c1ccc(OCc2ccccn2)cc1`
## Result inactive

## Task Request: `N#Cc1cc(-c2ccnc(Nc3ccc(N4CCOCC4)cc3)n2)ccc1OC1CCOCC1`
## Result inactive

## Task Request: `CCCCc1ccc(NS(=O)(=O)c2ccc(F)cc2)cc1`
## Result inactive

## Task Request: `COc1ccc(N2CCN(C(=O)c3cc4c(s3)-c3ccccc3S(=O)(=O)C4)CC2)cc1`
## Result inactive

## Task Request: `CCn1nc(C2CCN(C(=O)CCO)CC2)nc1-c1cnc(N)c(-c2nnc(C(C)(C)C)o2)n1`
## Result inactive

## Task Request: `CC[C@H]1CN(c2nc(N)c(C(N)=O)nc2Cl)CCN1C1CCN(Cc2ccc(Cl)cc2)CC1`
## Result inactive

## Task Request: `O=C(N[C@@H]1CCCc2c1cnn2-c1ccc(F)cc1F)c1ccccn1`
## Result inactive

## Task Request: `CCCc1cc(C)n(C)c(=O)c1CN(C)C(=O)c1cc(-c2ccc(N3CCN(C(C)C)CC3)nc2)cc2c1cnn2C(C)C`
## Result inactive

## Task Request: `CN(C)c1ccnc2sc3c(=O)n(N4CCCCCC4)cnc3c12`
## Result inactive

## Task Request: Nc1nc2c(ncn2C2OC3COP(=O)(O)OC3C2O)c(=O)[nH]1 (configuration not stated)
## Result inactive

## Task Request: CC(C)C[C@@H]1NC(=O)[C@@H](Cc2ccccc2)NC(=O)C(CCCCCC(=O)C2CO2)NC(=O)[C@@H]2CCCCN2C1=O (some centres not stated)
## Result active

## Task Request: `C=C1C(=O)O[C@@H]2[C@H]1CCC(C)=C(CCC(=O)O)[C@@]2(C)O`
## Result inactive

====

# System: HaCat
# Test Protocol: Cytotoxic Profiling of Annotated Libraries Using Quantitative High-Throughput Screening (AID 1296008); note: nearly all actives have a fitted effect of over 60% in size
# Experimental Parameters: Five cell lines viability, CellTiter-Glo ATP luminescence, 48-72 h
# Procedure: Cell-based phenotypic screening is a commonly used approach to discover biological pathways, novel drug targets, chemical probes and high-quality hit-to-lead molecules. […] A pintool (Kalypsys) was used to transfer 23 nL of compound solution to the 1536-well assay plates. […] Plates were left at room temperature for 10 min before imaging the ATP-coupled luminescence using a ViewLux microplate imager (PerkinElmer, Waltham, MA).
Inconclusive results are not listed. The source made the active and inactive calls. Calls come from the whole dose curve; as a rule, active = well fitted inhibition curve with a large enough effect; inconclusive = small, poorly fitted or top-dose-only effect; inactive = flat fitted curve, though single readings scatter.
In this exercise, the only acceptable responses are active, inactive

## Task Hi, do you know how `O=C(NCC1(c2nc(-c3ccccc3)cs2)CCOCC1)c1cccc(-c2noc(C(F)(F)F)n2)c1` came out in this test?
## Result inactive

## Task Request: `COc1cc(O)cc(/C=C/c2cccc(O)c2)c1`
## Result inactive

## Task Request: `CCOC(=O)c1cnc2ccc(-c3cncc(NS(=O)(=O)c4ccccc4)c3)cn12`
## Result active

## Task Request: COc1cc(C2OC(c3ccc(OC)c(OC)c3)C(C)C2C)ccc1O (centres undefined)
## Result inactive

## Task Request: `CC[C@H](C)/C=C(C)/C=C/C1=CC2=C(Cl)C(=O)[C@](C)(O)[C@H](OC(C)=O)[C@H]2CO1`
## Result inactive

## Task Request: `N#Cc1ccc(O[C@@H]2c3ccccc3C[C@H]2N2CCC[C@@H](N)C2)c(Cl)c1`
## Result inactive

## Task Request: `COC(=O)c1ccc2c(c1)nc(NC(=O)c1ccccc1)n2CCCc1ccccc1`
## Result inactive

## Task Request: `COc1ccc2nccc(C(=O)CC[C@@H]3CCN(CC#Cc4cc(F)cc(F)c4F)C[C@@H]3C(=O)O)c2c1`
## Result inactive

## Task Request: `COc1ccc(CCN(C)CCCOc2nsc(-c3ccccc3)n2)cc1OC`
## Result inactive

====

# Test system: HaCat
# Test Protocol: Cytotoxic Profiling of Annotated Libraries Using Quantitative High-Throughput Screening (AID 1296008); note: nearly all actives have a fitted effect of over 60% in size
# Experimental Parameters: Five cell lines viability, CellTiter-Glo ATP luminescence, 48-72 h
Inconclusive results are not listed. Activity calls are given as the source filed them. Calls come from the whole dose curve; as a rule, active = well fitted inhibition curve with a large enough effect; inconclusive = small, poorly fitted or top-dose-only effect; inactive = flat fitted curve, though single readings scatter.
In this exercise, the only acceptable responses are active, inactive

## Task Hi, do you know how `CC(C)c1c(O)ccc2c1CC[C@H]1C(C)(C)CCC[C@]21C` came out in this test?
## Result inactive

## Task Request: `C/C=C/C=C/C(=O)O[C@@H]1C=C2COC(=O)[C@]2(O)[C@@]2(C)CCCC(C)(C)[C@H]12`
## Result inactive

## Task Request: Cc1nc2ccc(CN(C)c3ccc(C(=O)NC(CCC(=O)O)C(=O)O)s3)cc2c(=O)[nH]1 (configuration not stated)
## Result active

## Task Request: `C[C@@H]1O[C@@H](O[C@H]2[C@@H]3C=CO[C@@H](O[C@@H]4O[C@H](CO)[C@@H](O)[C@H](O)[C@H]4O)[C@@H]3[C@@]3(CO)O[C@@H]23)[C@H](O)[C@H](OC(=O)/C=C/c2ccccc2)[C@H]1O`
## Result inactive

## Task Request: `N#Cc1ccc(N2N=C3c4ccc(C(=O)O)cc4CC[C@@H]3[C@@H]2C2CCCC2)cc1Cl`
## Result inactive

## Task Request: `CN1CCN(c2ccc(-c3cccc(CN4CCOCC4)c3)cc2NC(=O)c2c[nH]c(=O)cc2C(F)(F)F)CC1`
## Result inactive

## Task Request: CC1(C)CC[C@]2(C(=O)O)[C@H](O)C[C@]3(C)C(=CCC4[C@@]5(C)CC[C@H](O[C@@H]6O[C@H](CO[C@@H]7OC[C@H](O)[C@H](O)[C@H]7O[C@@H]7OC[C@H](O)[C@H](O)[C@H]7O)[C@@H](O)[C@H](O)[C@H]6O)C(C)(C)C5CC[C@]43C)[C@@H]2C1 (some centres not stated)
## Result inactive
